The measured values listed here are drawn from paper PMC4237307.

# Assay System: PfPK5 (Plasmodium falciparum)
# Sequence (P61075 whole entry): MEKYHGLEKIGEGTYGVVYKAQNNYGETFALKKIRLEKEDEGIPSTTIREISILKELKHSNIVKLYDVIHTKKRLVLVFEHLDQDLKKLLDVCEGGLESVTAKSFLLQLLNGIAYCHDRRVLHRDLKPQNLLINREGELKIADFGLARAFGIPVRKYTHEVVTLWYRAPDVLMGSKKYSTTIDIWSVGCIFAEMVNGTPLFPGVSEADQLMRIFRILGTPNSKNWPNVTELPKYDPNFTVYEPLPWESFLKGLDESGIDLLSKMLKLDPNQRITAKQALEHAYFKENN
# Particulars: read-out: Kd for PfPK5; competition binding, absence of ATP
Reported Metric: Kd

Cc1ccc([N+](=O)[O-])cc1S(=O)(=O)N(C)/N=C/c1cnc2ccc(Br)cn12
< 10 µM
